Tested on: HH (T-Cell Non-Hodgkin's Lymphoma)
ASSAY NAME: Bliss excess, mean over the matrix (fraction); higher = more synergy
// NO strictly below -0.0001 in Bliss excess; YES otherwise

Please review the entries below; each comes with its answer.
Query :: Could you verify whether the entry COc1cc2ncnc(Nc3ccc(F)c(Cl)c3)c2cc1OCCCN1CCOCC1 [Gefitinib] + CC(C)n1c(=O)n(C)c2cnc3cc(F)c(-c4ccc(OCCCN5CCCCC5)nc4)cc3c21 [AZD1390] (first compound max 10 µM, 7x7, partner max 0.3 µM) shows Bliss excess of no less than -0.0001?
Result :: NO

Query :: Could you verify whether the entry CN(C)CCCOc1ccc(-c2ccc3ncc4c(c3c2)n(C2CCOCC2)c(=O)n4C)cn1 [AZD0156] + C[C@@H]1COCCN1C2=NC(=NC(=C2)C3(CC3)[S@](=N)(=O)C)C4=C5C=CNC5=NC=C4 [AZD6738] (first compound max 1 µM, 7x7, partner max 10 µM) shows Bliss excess of no less than -0.0001?
Result :: YES

Query :: Could you verify whether the entry CN(CCO)CC[C@H](CSc1ccccc1)Nc1ccc(S(=O)(=O)NC(=O)c2ccc(N3CCC([C@@H](O)c4ccccc4-c4ccc(Cl)cc4)CC3)cc2)cc1S(=O)(=O)C(F)(F)F [AZD4320] + CN(C)CCCOc1ccc(-c2ccc3ncc4c(c3c2)n(C2CCOCC2)c(=O)n4C)cn1 [AZD0156] (first compound max 1 µM, 7x7, partner max 1 µM) shows Bliss excess of no less than -0.0001?
Result :: NO

Query :: Could you verify whether the entry C=CCn1c(=O)c2cnc(Nc3ccc(N4CCN(C)CC4)cc3)nc2n1-c1cccc(C(C)(C)O)n1 [AZD1775] + O=C(c1cc(Cc2n[nH]c(=O)c3ccccc23)ccc1F)N1CCN(C(=O)C2CC2)CC1 [Olaparib] (first compound max 1 µM, partner max 10 µM) shows Bliss excess of no less than -0.0001?
Result :: NO

Attention now turns to another entry.
Query :: Could you verify whether the entry CN(CCO)CC[C@H](CSc1ccccc1)Nc1ccc(S(=O)(=O)NC(=O)c2ccc(N3CCC([C@@H](O)c4ccccc4-c4ccc(Cl)cc4)CC3)cc2)cc1S(=O)(=O)C(F)(F)F [AZD4320] + CC(=O)O[C@H]1C(=O)[C@@]2(C)[C@H]([C@H](OC(=O)c3ccccc3)[C@]3(O)C[C@H](OC(=O)[C@H](O)[C@@H](NC(=O)c4ccccc4)c4ccccc4)C(C)=C1C3(C)C)[C@]1(OC(C)=O)CO[C@@H]1C[C@@H]2O [Paclitaxel] (first compound max 1 µM, 7x7, partner max 3 µM) shows Bliss excess of no less than -0.0001?
Result :: YES

====

Tested on: TGBC1TKB (Biliary Tract Carcinoma)
ASSAY NAME: combination Emax (second highest fraction inhibited in the dose matrix, 72 h); higher = more inhibition; extreme values may be limits of the assay
# reported combination Emax; entries follow

Check out these entries, answers already filled in.
# combination Emax (molecule: CN(C)CCCOc1ccc(-c2ccc3ncc4c(c3c2)n(C2CCOCC2)c(=O)n4C)cn1 [AZD0156] + O=C(c1cc(Cc2n[nH]c(=O)c3ccccc23)ccc1F)N1CCN(C(=O)C2CC2)CC1 [Olaparib] (first compound max 3 µM, partner max 3 µM) ) is 0.157

# combination Emax (molecule: C[C@@H]1COCCN1c1cc(C2([S@](C)(=N)=O)CC2)nc(-c2ccnc3[nH]ccc23)n1 [AZD6738] + Nc1ccn([C@@H]2O[C@H](CO)[C@@H](O)C2(F)F)c(=O)n1 [Gemcitabine] (first compound max 10 µM, 7x7, partner max 0.3 µM) ) is 0.583

# combination Emax (molecule: Cc1cc2ncnn2cc1Nc1ncc2c(n1)n(C1CCOCC1)c(=O)n2C [AZD7648] + C=CCn1c(=O)c2cnc(Nc3ccc(N4CCN(C)CC4)cc3)nc2n1-c1cccc(C(C)(C)O)n1 [AZD1775] (first compound max 10 µM, partner max 1 µM) ) is 0.335

# combination Emax (molecule: Cn1cnc2c(F)c(Nc3ccc(Br)cc3Cl)c(C(=O)NOCCO)cc21 [Selumetinib] + CC(C)n1c(=O)n(C)c2cnc3cc(F)c(-c4ccc(OCCCN5CCCCC5)nc4)cc3c21 [AZD1390] (first compound max 10 µM, 7x7, partner max 0.3 µM) ) is 0.152

# combination Emax (molecule: CN(CCO)CC[C@H](CSc1ccccc1)Nc1ccc(S(=O)(=O)NC(=O)c2ccc(N3CCC([C@@H](O)c4ccccc4-c4ccc(Cl)cc4)CC3)cc2)cc1S(=O)(=O)C(F)(F)F [AZD4320] + C[C@@H](Nc1cc(F)cc(F)c1)c1cc(C(=O)N(C)C)cc2c(=O)cc(N3CCOCC3)oc12 [AZD8186] (first compound max 1 µM, 7x7, partner max 3 µM) ) is 0.802

***
# combination Emax (molecule: N#Cc1cnc(Nc2cc(NC[C@H]3CNCCO3)c(C(F)(F)F)cn2)cn1 [SRA737] + CCc1c2c(nc3ccc(O)cc13)-c1cc3c(c(=O)n1C2)COC(=O)[C@]3(O)CC [SN-38] (first compound max 10 µM, 7x7, partner max 0.3 µM) ) is 0.367

# combination Emax (molecule: COc1nnc2ccc(N3CCC(c4ccc(OCCN5CCN(C)C(=O)[C@H]5C)cc4)CC3)nn12 [AZD5153] + CCN(CCO)CCCOc1ccc2c(Nc3cc(CC(=O)Nc4cccc(F)c4)[nH]n3)ncnc2c1 [AZD2811] (first compound max 1 µM, 7x7, partner max 1 µM) ) is 0.307

====

# reported Bliss excess; entries follow
System: WSU-NHL (B-Cell Non-Hodgkin's Lymphoma)
ASSAY NAME: Bliss excess, mean over the matrix (fraction); higher = more synergy
Enter a number only.

Check out these entries, answers already filled in.
# Bliss excess (molecule: Cc1c2c(nn1C)CSCc1cc(n(C)n1)CSc1cc(c3ccccc3c1)OCCCc1c(C(=O)O)n(C)c3c-2c(Cl)ccc13 [AZD5991] + CC1(C)CCC(CN2CCN(c3ccc(C(=O)NS(=O)(=O)c4ccc(NCC5CCOCC5)c([N+](=O)[O-])c4)c(Oc4cnc5[nH]ccc5c4)c3)CC2)=C(c2ccc(Cl)cc2)C1 [Venetoclax] (first compound max 1 µM, 7x7, partner max 1 µM) ) is 0.0602

# Bliss excess (molecule: COc1cccc2c1C(=O)c1c(O)c3c(c(O)c1C2=O)C[C@@](O)(C(=O)CO)C[C@@H]3O[C@H]1C[C@H](N)[C@H](O)[C@H](C)O1 [Doxorubicin] + Cc1cc2ncnn2cc1Nc1ncc2c(n1)n(C1CCOCC1)c(=O)n2C [AZD7648] (first compound max 1 µM, 7x7, partner max 10 µM) ) is 0.0404

***
# Bliss excess (molecule: CN(C)CCCOc1ccc(-c2ccc3ncc4c(c3c2)n(C2CCOCC2)c(=O)n4C)cn1 [AZD0156] + C=CCn1c(=O)c2cnc(Nc3ccc(N4CCN(C)CC4)cc3)nc2n1-c1cccc(C(C)(C)O)n1 [AZD1775] (first compound max 1 µM, partner max 1 µM) ) is -0.002

====

# reported combination Emax; entries follow
Test system: MPP-89 (Mesothelioma)
ASSAY NAME: combination Emax (second highest fraction inhibited in the dose matrix, 72 h); higher = more inhibition; extreme values may be limits of the assay
Enter a number only.

Measured on MPP-89 (Mesothelioma), CN(C)CCCOc1ccc(-c2ccc3ncc4c(c3c2)n(C2CCOCC2)c(=O)n4C)cn1 [AZD0156] + C=CCn1c(=O)c2cnc(Nc3ccc(N4CCN(C)CC4)cc3)nc2n1-c1cccc(C(C)(C)O)n1 [AZD1775] (first compound max 1 µM, partner max 1 µM) has a documented combination Emax of 0.522

Proceed to the following item.
Measured on MPP-89 (Mesothelioma), CN(CCO)CC[C@H](CSc1ccccc1)Nc1ccc(S(=O)(=O)NC(=O)c2ccc(N3CCC([C@@H](O)c4ccccc4-c4ccc(Cl)cc4)CC3)cc2)cc1S(=O)(=O)C(F)(F)F [AZD4320] + C1CN(CCC1(C(=O)N[C@@H](CCO)C2=CC=C(C=C2)Cl)N)C3=NC=NC4=C3C=CN4 [Capivasertib] (first compound max 1 µM, 7x7, partner max 3 µM) has a documented combination Emax of 0.198

====

System: HeLa (Cervical Carcinoma)
ASSAY NAME: combination Emax (second highest fraction inhibited in the dose matrix, 72 h); higher = more inhibition; extreme values may be limits of the assay
PROPERTY NAME: combination Emax
Enter a number only.

# combination Emax (molecule: Cc1c2c(nn1C)CSCc1cc(n(C)n1)CSc1cc(c3ccccc3c1)OCCCc1c(C(=O)O)n(C)c3c-2c(Cl)ccc13 [AZD5991] + C=CCn1c(=O)c2cnc(Nc3ccc(N4CCN(C)CC4)cc3)nc2n1-c1cccc(C(C)(C)O)n1 [AZD1775] (first compound max 1 µM, partner max 1 µM) ) is 0.841

# combination Emax (molecule: CN(CCO)CC[C@H](CSc1ccccc1)Nc1ccc(S(=O)(=O)NC(=O)c2ccc(N3CCC([C@@H](O)c4ccccc4-c4ccc(Cl)cc4)CC3)cc2)cc1S(=O)(=O)C(F)(F)F [AZD4320] + C[C@@H]1COCCN1C2=NC(=NC(=C2)C3(CC3)[S@](=N)(=O)C)C4=C5C=CNC5=NC=C4 [AZD6738] (first compound max 1 µM, 7x7, partner max 10 µM) ) is 0.717

Proceed to the following item.
# combination Emax (molecule: CCN(CCO)CCCOc1ccc2c(Nc3cc(CC(=O)Nc4cccc(F)c4)[nH]n3)ncnc2c1 [AZD2811] + O=C(c1cc(Cc2n[nH]c(=O)c3ccccc23)ccc1F)N1CCN(C(=O)C2CC2)CC1 [Olaparib] (first compound max 1 µM, 7x7, partner max 10 µM) ) is 0.293
